# systemUnderTest: T1, Human CD3εδ Fc heterodimer (Hu CD3ε Fc + CD3δ Fc-HIS) (human, UniProt P07766 22-126; P04234 22-100)
# T1 construct: range 22-126;range 22-100; Made in HEK 293 cells with a heterologous signal peptide; also called Hu CD3εδ-Fc; CD3εδ Fc-HIS heterodimer; not shown: Fc; Fc followed by HIS tag
# T1 sequence (P07766 22-126, stated change not applied, form in doubt, chain 1 of 2): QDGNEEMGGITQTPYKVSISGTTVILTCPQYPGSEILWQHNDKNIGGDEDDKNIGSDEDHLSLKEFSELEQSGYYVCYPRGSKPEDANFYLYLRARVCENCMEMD
# T1 sequence (P04234 22-100, stated change not applied, form in doubt, chain 2 of 2): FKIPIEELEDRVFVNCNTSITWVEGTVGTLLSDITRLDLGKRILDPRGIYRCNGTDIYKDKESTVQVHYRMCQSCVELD
# testMethodNotes: SPR (Biacore), Fab over immobilized CD3εδ Fc, pH 7.4
# pKd per entry
Please express pKd as -log10 of the molar concentration.

Q: Report pKd for Antibody No. V009 (ADI-70326) Fab (Fab, V domains shown, Fab by papain digestion of the IgG1) VH: QVQLVQSGAEVKKPGASVKVSCKASGFDIKDYYMHWVRQAPGQRLEWIGWIELENADTVYDAKFQGRVTITRDTSASTAYMELSSLRSEDTAVYYCARDAYGRYFYDVWGQGTLVTVSS VL: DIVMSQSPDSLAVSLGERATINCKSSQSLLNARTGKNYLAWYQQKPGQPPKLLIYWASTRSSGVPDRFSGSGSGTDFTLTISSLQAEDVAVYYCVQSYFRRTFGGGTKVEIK
A: 9.85

Q: Report pKd for Antibody No. A003 (ADI-26913) Fab (Fab, V domains shown, Fab by papain digestion of the IgG1) VH: QVQLVQSGAEVKKPGASVKVSCKASGFNIKDYYMHWVRQAPGQRLEWMGWIDLENANTIYDAKFQGRVTITRDTSASTAYMELSSLRSEDTAVYYCARDQYGRYFYDVWGQGTLVTVSS VL: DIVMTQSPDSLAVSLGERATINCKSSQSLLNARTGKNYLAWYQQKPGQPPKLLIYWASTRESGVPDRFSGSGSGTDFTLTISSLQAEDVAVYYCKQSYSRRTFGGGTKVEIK
A: 8.00

Q: Report pKd for Antibody No. A002 (ADI-50024) Fab (Fab, V domains shown, Fab by papain digestion of the IgG1) VH: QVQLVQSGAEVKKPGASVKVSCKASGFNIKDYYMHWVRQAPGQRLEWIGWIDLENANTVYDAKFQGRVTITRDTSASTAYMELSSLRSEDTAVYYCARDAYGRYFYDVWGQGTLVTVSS VL: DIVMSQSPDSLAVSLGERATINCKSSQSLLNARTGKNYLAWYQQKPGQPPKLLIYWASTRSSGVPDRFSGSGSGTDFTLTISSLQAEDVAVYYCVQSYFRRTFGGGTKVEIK
A: 10.23

Q: Report pKd for Antibody No. V007 (ADI-67450) Fab (Fab, V domains shown, Fab by papain digestion of the IgG1) VH: QVQLVQSGAEVKKPGASVKVSCKASGFNIDDYYMHWVRQAPGQRLEWMGWIDLENANTIDDAKFQGRVTITRDTSASTAYMELSSLRSEDTAVYYCARDAYGRYFYDVWGQGTLVTVSS VL: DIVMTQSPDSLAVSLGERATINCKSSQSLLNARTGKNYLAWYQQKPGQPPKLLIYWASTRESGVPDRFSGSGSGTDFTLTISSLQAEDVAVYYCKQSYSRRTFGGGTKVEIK
A: 8.40

Q: Report pKd for Antibody No. A005 (ADI-26921) Fab (Fab, V domains shown, Fab by papain digestion of the IgG1) VH: QVQLVQSGAEVKKPGASVKVSCKASGFNIKDYYMHWVRQAPGQRLEWMGWIDLEEGNTIYDAKFQGRVTITRDTSASTAYMELSSLRSEDTAVYYCARDAYGRYFYDVWGQGTLVTVSS VL: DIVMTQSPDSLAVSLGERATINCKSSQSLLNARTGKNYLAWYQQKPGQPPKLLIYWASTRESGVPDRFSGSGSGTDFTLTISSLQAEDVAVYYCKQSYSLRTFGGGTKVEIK
A: 7.62

Q: Report pKd for Antibody No. A004 (ADI-26920) Fab (Fab, V domains shown, Fab by papain digestion of the IgG1) VH: QVQLVQSGAEVKKPGASVKVSCKASGFNIKDYYMHWVRQAPGQRLEWMGWIDLENANTIYDAKFQGRVTITRDTSASTAYMELSSLRSEDTAVYYCGRDAYGRYFYDVWGQGTLVTVSS VL: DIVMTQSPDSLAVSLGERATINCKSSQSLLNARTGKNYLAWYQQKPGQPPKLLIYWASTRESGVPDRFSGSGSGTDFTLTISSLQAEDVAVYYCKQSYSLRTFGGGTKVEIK
A: 8.00
